Cited source for all entries: ChEMBL document CHEMBL1157126

Biological target: UniProt:P09619
Sequence (P09619 whole entry): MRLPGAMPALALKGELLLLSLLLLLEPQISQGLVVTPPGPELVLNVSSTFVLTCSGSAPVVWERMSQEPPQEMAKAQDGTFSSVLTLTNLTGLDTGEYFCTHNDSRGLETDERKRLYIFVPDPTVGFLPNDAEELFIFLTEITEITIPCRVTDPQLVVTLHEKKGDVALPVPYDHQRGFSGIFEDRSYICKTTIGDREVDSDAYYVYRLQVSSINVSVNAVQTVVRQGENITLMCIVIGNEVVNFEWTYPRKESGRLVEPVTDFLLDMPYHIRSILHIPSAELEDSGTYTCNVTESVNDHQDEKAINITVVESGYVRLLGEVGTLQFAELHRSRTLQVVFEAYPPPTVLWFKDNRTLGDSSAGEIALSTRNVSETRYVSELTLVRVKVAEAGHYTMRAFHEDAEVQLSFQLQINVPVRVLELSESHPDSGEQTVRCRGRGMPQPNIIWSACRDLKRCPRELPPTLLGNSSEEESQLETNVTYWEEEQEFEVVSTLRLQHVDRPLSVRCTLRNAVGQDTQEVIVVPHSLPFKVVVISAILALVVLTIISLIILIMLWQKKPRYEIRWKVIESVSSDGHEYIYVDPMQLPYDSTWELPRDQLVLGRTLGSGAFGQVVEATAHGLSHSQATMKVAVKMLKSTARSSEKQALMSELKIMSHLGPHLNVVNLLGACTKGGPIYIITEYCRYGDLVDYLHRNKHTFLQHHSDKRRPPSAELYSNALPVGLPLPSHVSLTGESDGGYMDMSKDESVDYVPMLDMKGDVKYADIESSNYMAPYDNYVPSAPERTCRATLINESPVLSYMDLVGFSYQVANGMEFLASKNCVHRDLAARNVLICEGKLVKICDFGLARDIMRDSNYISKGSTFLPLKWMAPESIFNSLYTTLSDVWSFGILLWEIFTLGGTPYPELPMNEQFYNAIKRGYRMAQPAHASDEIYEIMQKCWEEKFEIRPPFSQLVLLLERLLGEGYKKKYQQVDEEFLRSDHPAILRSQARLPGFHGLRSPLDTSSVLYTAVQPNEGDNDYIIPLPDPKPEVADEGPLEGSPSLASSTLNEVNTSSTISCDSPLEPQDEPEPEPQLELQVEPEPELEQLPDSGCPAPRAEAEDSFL
Assay: Inhibition of PDGF-stimulated PDGFRbeta phosphorylation expressed in human SF-539 cells by chemiluminescence assay
quantityKind: IC50
// return the numeric value with its unit appended

Task item: Kindly indicate its recorded IC50. Item: Cc1[nH]c(/C=C2\C(=O)Nc3ccccc32)c(C)c1CCC(=O)O [ORANTINIB]
Reply: 100 nM

---

Target: Vascular endothelial growth factor receptor 1 (Homo sapiens)
Sequence (P17948 whole entry): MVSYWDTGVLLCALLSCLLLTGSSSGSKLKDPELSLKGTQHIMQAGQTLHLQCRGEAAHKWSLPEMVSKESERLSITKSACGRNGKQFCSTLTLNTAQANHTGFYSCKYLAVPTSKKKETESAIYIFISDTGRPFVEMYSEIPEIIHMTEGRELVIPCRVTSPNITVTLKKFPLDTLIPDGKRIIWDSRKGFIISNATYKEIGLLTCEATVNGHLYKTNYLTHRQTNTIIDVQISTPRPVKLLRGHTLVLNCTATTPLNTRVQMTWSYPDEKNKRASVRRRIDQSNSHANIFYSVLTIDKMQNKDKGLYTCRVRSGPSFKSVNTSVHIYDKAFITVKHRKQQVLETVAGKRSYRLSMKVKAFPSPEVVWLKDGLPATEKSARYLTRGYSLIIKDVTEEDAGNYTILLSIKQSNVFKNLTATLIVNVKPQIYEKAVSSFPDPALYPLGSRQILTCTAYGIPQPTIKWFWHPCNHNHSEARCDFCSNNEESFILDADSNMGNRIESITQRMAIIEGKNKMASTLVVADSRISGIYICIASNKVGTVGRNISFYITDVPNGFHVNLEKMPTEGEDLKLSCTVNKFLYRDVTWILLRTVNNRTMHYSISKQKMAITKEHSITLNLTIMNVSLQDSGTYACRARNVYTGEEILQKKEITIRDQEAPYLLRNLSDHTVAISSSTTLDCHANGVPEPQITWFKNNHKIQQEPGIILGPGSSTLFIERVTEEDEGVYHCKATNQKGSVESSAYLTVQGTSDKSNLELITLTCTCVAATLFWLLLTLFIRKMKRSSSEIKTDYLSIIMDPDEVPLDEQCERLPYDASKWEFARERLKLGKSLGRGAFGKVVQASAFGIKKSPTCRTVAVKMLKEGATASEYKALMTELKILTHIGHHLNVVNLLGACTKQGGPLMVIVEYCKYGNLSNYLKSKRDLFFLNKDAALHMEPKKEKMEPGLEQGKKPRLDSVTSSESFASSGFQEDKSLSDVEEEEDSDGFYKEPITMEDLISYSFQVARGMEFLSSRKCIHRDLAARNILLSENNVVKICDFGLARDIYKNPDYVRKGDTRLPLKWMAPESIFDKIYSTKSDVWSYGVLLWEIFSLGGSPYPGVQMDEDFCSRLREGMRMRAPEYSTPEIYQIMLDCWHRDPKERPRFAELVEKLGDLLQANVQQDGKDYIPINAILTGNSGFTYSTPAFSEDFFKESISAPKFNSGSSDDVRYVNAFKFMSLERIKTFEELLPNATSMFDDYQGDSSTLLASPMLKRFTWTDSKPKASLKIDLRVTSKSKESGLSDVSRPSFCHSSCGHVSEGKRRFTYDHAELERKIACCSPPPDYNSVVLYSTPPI
Experiment: Inhibition of VEGFR1 phosphorylation in human A498 cells after 10 mins by FLISA
For each entry below, report its pIC50 value.
Friendly reminder that pIC50 comes from taking -log10 of the concentration in mol/L.

Task item: Quote Vascular endothelial growth factor receptor 1 (Homo sapiens) pIC50 for entry CC(C)c1ccccc1Nc1nc(N)nc2[nH]c(Cc3ccc(Cl)cc3Cl)cc12 .
Reply: 3.79

Task item: Fill: pIC50 (Vascular endothelial growth factor receptor 1 (Homo sapiens)) for this compound Nc1nc(Nc2ccc(Cl)cc2F)c2cc(Cc3ccc(Cl)cc3Cl)[nH]c2n1
Reply: 4.15

Task item: State recorded pIC50 with Vascular endothelial growth factor receptor 1 (Homo sapiens), entry Nc1nc(Nc2cccc(F)c2)c2cc(Cc3ccc(Cl)cc3Cl)[nH]c2n1 , no comment.
Reply: 3.79

Task item: # return pIC50 for Clc1ccc(Cc2cc3c(Nc4cccc(Br)c4)ncnc3[nH]2)c(Cl)c1 , test system: Vascular endothelial growth factor receptor 1 (Homo sapiens)
Reply: 3.82

Task item: Recall the reported pIC50 of CC(C)c1ccc(Nc2nc(N)nc3[nH]c(Cc4ccc(Cl)cc4Cl)cc23)cc1 on Vascular endothelial growth factor receptor 1 (Homo sapiens) and write it down.
Reply: 3.80
